target: Gonadotropin-releasing hormone receptor (Homo sapiens); test: Human gonadotropin-releasing hormone receptor (GnRHR) small molecule agonists, calcium flux assay in GnRHR-HEK293 cells (AID 1920063); conditions: calcium flux fluorescence, agonist mode; series mostly up to 57.6 µM; also: nearly all actives have a fitted effect of over 35% in size
Activity calls are given as the source filed them. Calls follow the shape of the full dose curve.
Assay endpoint: outcome

| Molecule | Assay endpoint | Result |
| --- | --- | --- |
| CC(C)(C)c1cc([N+](=O)[O-])cc(C(C)(C)C)c1O | outcome | inactive |
| CCOP(=S)(OCC)SCSc1ccc(Cl)cc1 | outcome | inactive |
| O=C1c2ccccc2C(=O)C1C(=O)C(c1ccccc1)c1ccccc1 | outcome | inactive |
| Nc1ccc(Cc2ccc(N)c(Cl)c2)cc1Cl | outcome | inactive |
| CC(C)c1c(CN(C)C(C)Cc2ccccc2)n(C)n(-c2ccccc2)c1=O (stereo unspecified) | outcome | inactive |

Please report the recorded outcome for COc1cc(Cl)c(OC)cc1Cl . inactive

====

molecular target: D(2) dopamine receptor (Homo sapiens) (UniProt P14416); assay: Dopamine D2 receptor (DRD2) small molecule agonists, cell-based qHTS assay (AID 1963594); conditions: HEK293-DRD2 cAMP HTRF, agonist mode, 30 min; series mostly up to 92.4 µM; also: nearly all actives have a fitted effect of over 35% in size
Sequence (P14416 whole entry, looked up): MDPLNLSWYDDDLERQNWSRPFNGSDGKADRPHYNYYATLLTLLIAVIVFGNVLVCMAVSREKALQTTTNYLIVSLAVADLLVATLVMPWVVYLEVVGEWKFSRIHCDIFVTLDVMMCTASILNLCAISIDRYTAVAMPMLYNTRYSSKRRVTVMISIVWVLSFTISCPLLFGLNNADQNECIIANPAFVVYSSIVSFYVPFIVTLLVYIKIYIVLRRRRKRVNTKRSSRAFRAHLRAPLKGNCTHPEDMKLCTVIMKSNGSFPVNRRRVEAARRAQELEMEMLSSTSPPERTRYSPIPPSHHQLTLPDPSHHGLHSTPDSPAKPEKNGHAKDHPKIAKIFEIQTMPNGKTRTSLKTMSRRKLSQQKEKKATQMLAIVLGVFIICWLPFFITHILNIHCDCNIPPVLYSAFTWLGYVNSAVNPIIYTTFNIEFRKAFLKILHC
Results filed as inconclusive are left out. Calls of active or inactive are those of the source. Calls follow the shape of the full dose curve.
Respond using exactly one of the listed classes: active, inactive

Previously resolved entries follow.
| Compound | Experimental system | Class name |
| --- | --- | --- |
| O=C(c1ccccc1)C(Cl)Cl | D(2) dopamine receptor (Homo sapiens) (UniProt P14416) | inactive |
| CNC(=O)Oc1cccc(N=CN(C)C)c1 | D(2) dopamine receptor (Homo sapiens) (UniProt P14416) | inactive |
| NC(=O)CI | D(2) dopamine receptor (Homo sapiens) (UniProt P14416) | inactive |
| CN1C(=O)CN=C(c2ccccc2)c2cc([N+](=O)[O-])ccc21 | D(2) dopamine receptor (Homo sapiens) (UniProt P14416) | inactive |
| CCOP(=S)(OCC)SCCS(=O)(=O)CC | D(2) dopamine receptor (Homo sapiens) (UniProt P14416) | inactive |
| CNC(=O)Oc1cc(C)cc(C(C)C)c1 | D(2) dopamine receptor (Homo sapiens) (UniProt P14416) | inactive |
| C[C@H]1CCC[C@H](O)CCCCCc2cc(O)cc(O)c2C(=O)O1 | D(2) dopamine receptor (Homo sapiens) (UniProt P14416) | inactive |
| O=C(NC(=O)c1c(F)cccc1F)Nc1ccc(OC(F)(F)C(F)OC(F)(F)F)c(Cl)c1 (stereo not given) | D(2) dopamine receptor (Homo sapiens) (UniProt P14416) | inactive |

Outcome logged for O=C(Nc1ccc2[nH]ccc2c1)c1cc2cc(F)ccc2n1Cc1cccc(F)c1 in this assay: inactive

Subsequent entry: Clc1ccccc1N1CCNCC1 inactive

What do we get for O=[N+]([O-])c1ccc(CCl)cc1 ? inactive

Then CC/C(=N\OC/C=C/Cl)C1=C(O)CC(C2CCOCC2)CC1=O (stereo not given) ? inactive

Now the same for CN(C1CCCCC1)C1CCCCC1 inactive

Repeat with CC1(C)CN=C(NN=C(/C=C/c2ccc(C(F)(F)F)cc2)/C=C/c2ccc(C(F)(F)F)cc2)NC1 inactive

====

target: Beta-2 adrenergic receptor (Homo sapiens) (UniProt P07550); assay: Adrenergic beta2 receptor (ADRB2) small molecule antagonists, cell-based qHTS assay (AID 1963592); settings: CHO-ADRB2 cells, isoproterenol-stimulated cAMP HTRF ratio, 0.5 h; series mostly up to 92.4 µM; also: nearly all actives have a fitted effect of over 50% in size
Sequence (P07550 whole entry, looked up): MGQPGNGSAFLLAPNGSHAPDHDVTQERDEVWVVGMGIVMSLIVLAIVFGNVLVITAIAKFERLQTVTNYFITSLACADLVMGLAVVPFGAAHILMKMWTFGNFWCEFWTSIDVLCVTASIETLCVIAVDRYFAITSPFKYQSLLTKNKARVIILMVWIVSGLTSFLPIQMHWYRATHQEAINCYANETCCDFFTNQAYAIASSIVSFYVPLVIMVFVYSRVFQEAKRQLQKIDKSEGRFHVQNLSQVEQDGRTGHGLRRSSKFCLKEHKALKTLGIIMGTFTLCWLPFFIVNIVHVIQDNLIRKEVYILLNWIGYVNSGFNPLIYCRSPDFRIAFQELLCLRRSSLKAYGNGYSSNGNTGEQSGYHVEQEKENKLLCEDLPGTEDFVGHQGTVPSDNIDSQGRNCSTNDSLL
Records with an inconclusive call do not appear. Calls of active or inactive are those of the source. The call rests on the fitted dose curve.
Permitted responses: yes (active), no (inactive)

Some entries whose results are on file:
| Compound | Class name |
| --- | --- |
| C[C@@H]1C[C@@H]([C@H](O)CC2CC(=O)NC(=O)C2)C(=O)[C@@H](C)C1 | no |
| O=[N+]([O-])c1ccc2ccc3cccc4ccc1c2c34 | no |
| O=C1C(=O)c2cccc3cccc1c23 | no |
| COC1=CC(=O)O[C@@H](/C=C/c2ccccc2)C1 | no |
| Cc1nc2ccccc2c(=O)n1-c1ccccc1Cl | no |

# fetch the recorded call for CCC(C)c1cccc(C(C)CC)c1O (stereo unspecified) here no

Then what about the compound CC1(C)CON(Cc2ccccc2Cl)C1=O ? no

Source: PubChem BioAssay (Tox21)
